Assay procedure: Selectivity index, ratio of ID50 for mouse J774 cells to ID50 for Trypanosoma cruzi Tulahuen 2
Assay type: toxicity, cell-based
Applied conditions: J774 cells versus Trypanosoma cruzi Tulahuen 2
Measure: selectivity ratio

Prompt: Fill blank: measured selectivity ratio of the compound CC1(C)[N+]([O-])=c2ccc(CN3CCN(C/C=C/c4ccccc4)CC3)cc2=[N+]1[O-] is ____.
Response: 4.4

Prompt: Which selectivity ratio is listed for O=[N+]([O-])c1ccc2c(c1)c(OCc1ccccc1)nn2CCOCCNCCC/C=C/c1ccccc1 ?
Response: < 22.2

Prompt: Look up selectivity ratio: COc1nn(CCOCCN(C)C/C=C/c2ccccc2)c2ccc([N+](=O)[O-])cc12
Response: < 4.3

Prompt: selectivity ratio lookup needed for C=CCNC(=S)N/N=C/c1ccc2c(c1)=[N+]([O-])C(C)(C)[N+]=2[O-] , thanks.
Response: 14.4

Prompt: # lookup: selectivity ratio of COc1nn(CCOCCN2CCN(C/C=C/c3ccccc3)CC2)c2ccc([N+](=O)[O-])cc12
Response: < 26.3

Prompt: Value lookup for selectivity ratio; key = O=[N+]([O-])c1ccc2c(c1)c(OCc1ccccc1)nn2CCOCCN1CCN(C/C=C/c2ccccc2)CC1
Response: < 15.4

Prompt: # selectivity ratio lookup, item O=[N+]([O-])c1ccc2c(c1)c(OCc1ccccc1)nn2CCCCCN1CCN(C/C=C/c2ccccc2)CC1
Response: < 9.4

Prompt: Would you mind telling me what selectivity ratio value was observed for CCOC(=O)c1c(-c2ccccc2)[n+]([O-])c2ccc(CN3CCN(C/C=C/c4ccccc4)CC3)cc2[n+]1[O-] ?
Response: < 10.5

Prompt: I'd like to know its selectivity ratio. The compound in question is CN(C/C=C/C#CC(C)(C)C)Cc1cccc2ccccc12
Response: < 10

Prompt: Consider the compound shown here: CN(C/C=C/c1ccccc1)CCOCCn1nc(OCc2ccccc2)c2cc([N+](=O)[O-])ccc21 What is its recorded selectivity ratio?
Response: < 10

Prompt: I would be grateful if you could share the reported selectivity ratio for C=CCNC(=S)N/N=C/c1ccc2c(c1)[n+]([O-])c(C(=O)OCC)c(-c1ccccc1)[n+]2[O-] .
Response: > 33.3

----------
Assay procedure: Cytotoxicity against mouse J774 cells after 48 hrs by MTT assay
Assay type: cell-based
Applied conditions: read-out: ID50
Measure: CC50 at 48 h

Prompt: GET /values?readout=CC50 at 48 h&item= CN(C/C=C/C#CC(C)(C)C)Cc1cccc2ccccc12
Response: < 100 µM

Prompt: Can you share its CC50 at 48 h? I mean this molecule: C=CCNC(=S)N/N=C/c1ccc2c(c1)[n+]([O-])c(C(=O)OCC)c(-c1ccccc1)[n+]2[O-]
Response: > 400 µM

Prompt: Any idea what its CC50 at 48 h is? The molecule is CN(C/C=C/c1ccccc1)CCCCCn1nc(OCc2ccccc2)c2cc([N+](=O)[O-])ccc21
Response: < 100 µM

Prompt: Quick one: CC50 at 48 h for CCOC(=O)c1c(-c2ccccc2)[n+]([O-])c2ccc(CN3CCN(C/C=C/c4ccccc4)CC3)cc2[n+]1[O-] ?
Response: < 100 µM

Prompt: Name the recorded CC50 at 48 h for COc1nn(CCOCCN2CCN(C/C=C/c3ccccc3)CC2)c2ccc([N+](=O)[O-])cc12 .
Response: < 100 µM

Prompt: Please give the measured CC50 at 48 h for this molecule: O=[N+]([O-])c1ccc2c(c1)c(OCc1ccccc1)nn2CCCCCN1CCN(C/C=C/c2ccccc2)CC1
Response: < 100 µM

Prompt: Quick check: CC50 at 48 h of CC(=O)N1CCN(c2ccc(OCC3COC(Cn4ccnc4)(c4ccc(Cl)cc4Cl)O3)cc2)CC1 (stereo not drawn) ?
Response: 339 µM

Prompt: What does the data say about its CC50 at 48 h? Entry: CN(C/C=C/c1ccccc1)Cc1ccc2no[n+]([O-])c2c1
Response: < 100 µM
